- methodSummary: Plasma clearance in Beagle dog at 1 mg/kg, iv measured upto 24 hrs by LC/MS-MS analysis
- Type: ADME, organism-based, Canis lupus familiaris
assayMetric: clearance

Can you look up the measured clearance of "Cc1ccc([C@@H]2C[C@H](CN[C@H](C)c3cccc4ccccc34)Oc3ccccc32)cc1C(=O)O.Cl" for me? 2 mL/min/kg

* * *

- methodSummary: Cmax in Sprague-Dawley rat at 10 mg/kg, po administered as suspension measured upto 24 hrs by LC-MS/MS analysis
- Format: ADME, organism-based
- Design: dose 10 mg/kg, time < 24 hrs, route po
- experimentalParameters: in vivo
assayMetric: Cmax (µM)
Just the number in µM, nothing appended.

Can you look up the measured Cmax of "Cc1ccc([C@@H]2C[C@H](CN[C@H](C)c3cccc4ccccc34)Oc3ccccc32)cc1C(=O)O.Cl" for me? 4

* * *

- methodSummary: AUC(0 to 24 hrs) in Sprague-Dawley rat at 300 mg/kg
- Type: ADME, organism-based
- Design: dose 300 mg/kg
- experimentalParameters: in vivo
assayMetric: AUC(0-t) (µM·h)
Just the number in µM·h, nothing appended.

Can you look up the measured AUC(0-t) of "Cc1ccc([C@@H]2C[C@H](CN[C@H](C)c3cccc4ccccc34)Oc3ccccc32)cc1C(=O)O.Cl" for me? 1020

* * *

- methodSummary: Toxicity in monkey assessed as NOAEL
- Set-up: species or system Macaca mulatta
- experimentalParameters: rhesus monkey, in vivo
assayMetric: NOAEL (mg/kg/day)
Just the number in mg/kg/day, nothing appended.

Can you look up the measured NOAEL of "Cc1ccc([C@@H]2C[C@H](CN[C@H](C)c3cccc4ccccc34)Oc3ccccc32)cc1C(=O)O.Cl" for me? 50

* * *

- methodSummary: Oral bioavailability in Sprague-Dawley rat at 10 mg/kg administered as suspension measured upto 24 hrs by LC-MS/MS analysis
- Format: ADME, organism-based
- experimentalParameters: in vivo
assayMetric: bioavailability (%)
Just the number in %, nothing appended.

Can you look up the measured bioavailability of "Cc1ccc([C@@H]2C[C@H](CN[C@H](C)c3cccc4ccccc34)Oc3ccccc32)cc1C(=O)O.Cl" for me? 33

* * *

- methodSummary: Half life in Sprague-Dawley rat at 1 mg/kg, po measured upto 24 hrs by LC-MS/MS analysis
- experimentalParameters: in vivo
assayMetric: half-life at 24 h (h)
Just the number in h, nothing appended.

Can you look up the measured half-life at 24 h of "C[C@@H](N[C@H]1CCN(c2ccc(CC(=O)O)cc2)C1)c1cccc2ccccc12" for me? 6.13

* * *

- methodSummary: AUClast in Sprague-Dawley rat at 10 mg/kg, po measured upto 24 hrs by LC-MS/MS analysis
- Assay type: ADME, organism-based
- Set-up: dose 10 mg/kg, time < 24 hrs, route po
- experimentalParameters: in vivo
assayMetric: AUC(0-t) at 24 h (µM·h)
Just the number in µM·h, nothing appended.

Cc1ccc(N2CC(CN[C@H](C)c3cccc4ccccc34)Oc3ccccc32)cc1C(=O)O.Cl (some centres not stated): 55

The record that follows has no AUC(0-t) at 24 h shown yet.
Can you look up the measured AUC(0-t) at 24 h of C[C@@H](NCCCc1cccc(C(F)(F)F)c1)c1cccc2ccccc12 [CINACALCET] for me? 1.9

* * *

- methodSummary: Kinetic solubility of compound upto 500 uM at pH 7.4 measured after 16 hrs under shaking condition by UV-visible method
- Assay type: physicochemical
- experimentalParameters: buffer, read-out: Kinetic_solubility
assayMetric: solubility kinetic at 16 h, 500 µM

Can you look up the measured solubility kinetic at 16 h, 500 µM of "Cc1ccc([C@@H]2C[C@H](CN[C@H](C)c3cccc4ccccc34)Oc3ccccc32)cc1C(=O)O.Cl" for me? > 200 µM

* * *

- methodSummary: Microsomal stability in rat liver microsomes assessed as parent compound remaining at 1 uM measured upto 30 mins in presence of NADPH by LC-MS/MS analysis
- Format: ADME, Microsome
- experimentalParameters: read-out: Stability
assayMetric: remaining at 0.5 h, 1 µM (%)
Just the number in %, nothing appended.

COc1ccc([C@@H]2C[C@H](CN[C@H](C)c3cccc4ccccc34)Oc3ccccc32)cc1C(=O)O: 88
Cc1ccc([C@H]2C[C@@H](CN[C@H](C)c3cccc4ccccc34)Oc3ccccc32)cc1C(=O)O: 62
C[C@@H](NCC1CN(C(=O)c2ccccc2)c2ccccc2O1)c1cccc2ccccc12 (mixture of isomers; form 1): 0
C[C@@H](NC[C@H]1C[C@@H](c2ccc(F)c(C(=O)O)c2)c2ccccc2O1)c1cccc2ccccc12: 40
C[C@@H](NCC1CN(CC(F)(F)F)c2ccccc2O1)c1cccc2ccccc12 (some centres not stated): 5
Cc1c(C(=O)O)cccc1N1CC(CN[C@H](C)c2cccc3ccccc23)Oc2ccccc21.Cl (mixture of isomers; form 1): 45
C[C@@H](N[C@H]1CCN(c2ccc(CC(=O)O)cc2)C1)c1cccc2ccccc12: 34
C[C@@H](NC[C@H]1C[C@@H](c2cccc(C(=O)O)c2)c2ccccc2O1)c1cccc2ccccc12: 31
C[C@@H](NCC1CNc2ccccc2O1)c1cccc2ccccc12 (some centres not stated): 0
Cc1ccc(N2CC(CN[C@H](C)c3cccc4ccccc34)Oc3ccccc32)cc1C(=O)O.Cl (some centres not stated): 55

Can you look up the measured remaining at 0.5 h, 1 µM of C[C@@H](NCC1CN(c2ccc(F)c(C(=O)O)c2)c2ccccc2O1)c1cccc2ccccc12 (mixture of isomers; form 1) for me? 61

Can you look up the measured remaining at 0.5 h, 1 µM of "C[C@@H](NCCCc1cccc(C(F)(F)F)c1)c1cccc2ccccc12" for me? 4

Can you look up the measured remaining at 0.5 h, 1 µM of C[C@@H](NCC1CN(c2ccccn2)c2ccccc2O1)c1cccc2ccccc12 (some centres not stated) for me? 5

Can you look up the measured remaining at 0.5 h, 1 µM of C[C@@H](NCC1CN(c2ccc(C(=O)O)cc2)c2ccccc2O1)c1cccc2ccccc12 (some centres not stated) for me? 28

Can you look up the measured remaining at 0.5 h, 1 µM of C[C@@H](NCC1CN(C)c2ccccc2O1)c1cccc2ccccc12 (some centres not stated) for me? 0

Can you look up the measured remaining at 0.5 h, 1 µM of C[C@@H](NCC1CN(c2cccc(C(=O)O)c2)c2ccccc2O1)c1cccc2ccccc12 (mixture of isomers; form 1) for me? 36

Can you look up the measured remaining at 0.5 h, 1 µM of "Cc1ccc(C(=O)O)cc1[C@@H]1C[C@H](CN[C@H](C)c2cccc3ccccc23)Oc2ccccc21" for me? 52

* * *

Let's look at some compounds and their measured inhibition at 1 µM.
- targetEntity: hERG (Homo sapiens)
- Sequence (Q12809 whole entry): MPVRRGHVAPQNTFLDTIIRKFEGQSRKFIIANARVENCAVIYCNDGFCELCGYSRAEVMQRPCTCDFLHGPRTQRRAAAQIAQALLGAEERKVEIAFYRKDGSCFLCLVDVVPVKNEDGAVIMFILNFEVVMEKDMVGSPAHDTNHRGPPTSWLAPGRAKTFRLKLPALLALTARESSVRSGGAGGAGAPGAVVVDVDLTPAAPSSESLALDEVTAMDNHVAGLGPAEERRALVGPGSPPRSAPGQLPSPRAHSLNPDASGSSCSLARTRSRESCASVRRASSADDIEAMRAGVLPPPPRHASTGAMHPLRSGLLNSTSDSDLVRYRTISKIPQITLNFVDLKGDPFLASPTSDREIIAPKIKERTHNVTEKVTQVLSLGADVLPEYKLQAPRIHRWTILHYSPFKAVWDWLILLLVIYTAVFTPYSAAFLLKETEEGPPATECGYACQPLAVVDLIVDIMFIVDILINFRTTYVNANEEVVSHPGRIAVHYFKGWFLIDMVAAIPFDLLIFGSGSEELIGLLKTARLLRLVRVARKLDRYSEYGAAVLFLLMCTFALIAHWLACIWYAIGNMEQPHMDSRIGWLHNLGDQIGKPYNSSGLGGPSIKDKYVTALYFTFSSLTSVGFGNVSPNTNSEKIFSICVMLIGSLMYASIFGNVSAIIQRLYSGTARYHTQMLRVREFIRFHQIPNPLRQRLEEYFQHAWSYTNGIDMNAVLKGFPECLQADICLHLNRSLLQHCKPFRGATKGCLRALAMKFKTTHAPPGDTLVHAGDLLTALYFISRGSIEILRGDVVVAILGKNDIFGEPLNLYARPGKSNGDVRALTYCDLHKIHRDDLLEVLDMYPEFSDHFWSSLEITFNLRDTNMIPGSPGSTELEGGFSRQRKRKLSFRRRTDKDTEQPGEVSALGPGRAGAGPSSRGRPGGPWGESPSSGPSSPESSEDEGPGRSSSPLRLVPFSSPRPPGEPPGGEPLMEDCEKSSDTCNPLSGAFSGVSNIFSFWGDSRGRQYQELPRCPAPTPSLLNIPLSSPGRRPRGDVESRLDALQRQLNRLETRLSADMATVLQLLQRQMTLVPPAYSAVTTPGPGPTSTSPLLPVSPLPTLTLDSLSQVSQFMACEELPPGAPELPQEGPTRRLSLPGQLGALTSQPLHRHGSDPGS
- methodSummary: Inhibition of hERG at 1 uM relative to control
- Type: toxicity
Just the number in %, nothing appended.

Example entries begin here.
C[C@@H](NCC1CN(C)c2ccccc2O1)c1cccc2ccccc12 (stereo partly specified): 13
C[C@@H](NCC1CN(C(=O)c2ccccc2)c2ccccc2O1)c1cccc2ccccc12 (mixture of isomers; form 1): 16
C[C@@H](NCC1CN(c2cccc(C(=O)O)c2)c2ccccc2O1)c1cccc2ccccc12 (mixture of isomers; form 1): -1
C[C@@H](NCC1CN(c2ccccc2)c2ccccc2O1)c1cccc2ccccc12 (mixture of isomers; form 1): 14

Can you look up the measured inhibition at 1 µM of "Cc1ccc(C(=O)O)cc1[C@@H]1C[C@H](CN[C@H](C)c2cccc3ccccc23)Oc2ccccc21" for me? 5

Can you look up the measured inhibition at 1 µM of Cc1ccc(N2CC(CN[C@H](C)c3cccc4ccccc34)Oc3ccccc32)cc1C(=O)O.Cl (stereo partly specified) for me? 7

Can you look up the measured inhibition at 1 µM of C[C@@H](NCCCc1cccc(C(F)(F)F)c1)c1cccc2ccccc12 [CINACALCET] for me? 19

Can you look up the measured inhibition at 1 µM of "Cc1cc(C(=O)O)cc([C@@H]2C[C@H](CN[C@H](C)c3cccc4ccccc34)Oc3ccccc32)c1" for me? 0

Can you look up the measured inhibition at 1 µM of "COc1ccc([C@@H]2C[C@H](CN[C@H](C)c3cccc4ccccc34)Oc3ccccc32)cc1C(=O)O" for me? -3

Can you look up the measured inhibition at 1 µM of C[C@@H](NCC1CNc2ccccc2O1)c1cccc2ccccc12 (stereo partly specified) for me? 19

Can you look up the measured inhibition at 1 µM of "Cc1ccc([C@@H]2C[C@@H](CN[C@H](C)c3cccc4ccccc34)Oc3ccccc32)cc1C(=O)O" for me? 4

Can you look up the measured inhibition at 1 µM of "Cc1ccc([C@H]2C[C@@H](CN[C@H](C)c3cccc4ccccc34)Oc3ccccc32)cc1C(=O)O" for me? 9

Can you look up the measured inhibition at 1 µM of C[C@@H](NCC1CN(c2cccc(OCC(=O)O)c2)c2ccccc2O1)c1cccc2ccccc12 (stereo partly specified) for me? 43

Can you look up the measured inhibition at 1 µM of C[C@@H](NCC1CN(c2ccc(F)c(C(=O)O)c2)c2ccccc2O1)c1cccc2ccccc12 (mixture of isomers; form 1) for me? 5

Can you look up the measured inhibition at 1 µM of "Cc1ccc([C@@H]2C[C@H](CN[C@H](C)c3cccc4ccccc34)Oc3ccccc32)cc1C(=O)O.Cl" for me? 1

Can you look up the measured inhibition at 1 µM of C[C@@H](NCC1CN(c2ccc(C(=O)O)cc2)c2ccccc2O1)c1cccc2ccccc12 (stereo partly specified) for me? 5
